Cited source for all entries: ChEMBL document CHEMBL4680257

- System: L02
- run.description: Cytotoxicity against human L02 cells assessed as reduction in cell viability incubated for 24 hrs by MTT assay
- Type: cell-based
- condition.label: L02, 24 h
result.type: IC50 (µM)
Give bare numbers, in µM.

molecule=CC(=O)Nc1ccc(S(=O)(=O)N2C/C(=C\c3ccc(F)cc3)C(=O)/C(=C/c3ccc(F)cc3)C2)cc1 unit_label=µM value=19.4
molecule=O=C1/C(=C/c2ccccc2F)CN(S(=O)(=O)c2ccccc2)C/C1=C\c1ccccc1F unit_label=µM value=17.6
molecule=O=C1/C(=C/c2ccc(F)cc2)CN(S(=O)(=O)c2ccc(F)cc2)C/C1=C\c1ccc(F)cc1 unit_label=µM value=14.8

State recorded IC50 for all listed molecules.
1. Cl.NC1=NC(c2ccccc2F)C2=C(N1)/C(=C/c1ccccc1F)CN(S(=O)(=O)c1ccc(Cl)cc1)C2 (stereo not drawn)
2. N#Cc1ccc(S(=O)(=O)N2C/C(=C\c3ccccc3F)C(=O)/C(=C/c3ccccc3F)C2)cc1
3. N#Cc1ccc(S(=O)(=O)N2C/C(=C\c3ccc(F)cc3)C(=O)/C(=C/c3ccc(F)cc3)C2)cc1
4. O=C1/C(=C/c2ccccc2F)CN(S(=O)(=O)c2ccc(C(F)(F)F)cc2)C/C1=C\c1ccccc1F
5. Cl.NC1=NC(c2cccc(F)c2)C2=C(N1)/C(=C/c1cccc(F)c1)CN(S(=O)(=O)c1ccc(F)cc1)C2 (stereo not drawn)

Result:
11.5
11
14.7
16.2
18.8

====

- Test system: L02
- run.description: Cytotoxicity against human L02 cells assessed as reduction in cell viability incubated for 24 hrs by MTT assay
- Type: cell-based
- condition.label: L02, 24 h
result.type: pIC50
Numbers only, as −log10 of the molar value.

Worked cases, answers included:
compound="Cl.NC1=NC(c2cccc(F)c2)C2=C(N1)/C(=C/c1cccc(F)c1)CN(S(=O)(=O)c1ccc(Cl)cc1)C2 (configuration not stated)" result_type=pIC50 value=4.82
compound="Cc1ccc(S(=O)(=O)N2CC3=C(NC(N)=NC3c3ccccc3F)/C(=C/c3ccccc3F)C2)cc1.Cl (configuration not stated)" result_type=pIC50 value=4.94
compound="Cl.NC1=NC(c2cccc(F)c2)C2=C(N1)/C(=C/c1cccc(F)c1)CN(S(=O)(=O)c1ccccc1)C2 (configuration not stated)" result_type=pIC50 value=4.42
compound="Cl.N#Cc1ccc(S(=O)(=O)N2CC3=C(NC(N)=NC3c3ccc(F)cc3)/C(=C/c3ccc(F)cc3)C2)cc1 (configuration not stated)" result_type=pIC50 value=4.73
compound=O=C1/C(=C/c2ccc(F)cc2)CN(S(=O)(=O)c2ccccc2)C/C1=C\c1ccc(F)cc1 result_type=pIC50 value=4.73
compound=COc1cccc2c1C(=O)c1c(O)c3c(c(O)c1C2=O)C[C@@](O)(C(=O)CO)C[C@@H]3O[C@H]1C[C@H](N)[C@H](O)[C@H](C)O1 result_type=pIC50 value=4.86

Ask: Name the reported pIC50 value associated with the compound `Cc1ccc(S(=O)(=O)N2C/C(=C\c3cccc(F)c3)C(=O)/C(=C/c3cccc(F)c3)C2)cc1`
Result: 4.80

====

- System: L02
- run.description: Cytotoxicity against human L02 cells assessed as reduction in cell viability incubated for 24 hrs by MTT assay
- Type: cell-based
- condition.label: L02, 24 h
Record form. Attribute: pIC50. Fill in for each entry.
Answers are plain numbers, as −log10 of the molar value.

Worked cases, answers included:
compound="Cl.NC1=NC(c2cccc(F)c2)C2=C(N1)/C(=C/c1cccc(F)c1)CN(S(=O)(=O)c1ccc(C(F)(F)F)cc1)C2 (stereo not drawn)" result_type=pIC50 value=4.45
compound="CC(=O)Nc1ccc(S(=O)(=O)N2CC3=C(NC(N)=NC3c3cccc(F)c3)/C(=C/c3cccc(F)c3)C2)cc1.Cl (stereo not drawn)" result_type=pIC50 value=4.82
compound="Cl.NC1=NC(c2ccc(F)cc2)C2=C(N1)/C(=C/c1ccc(F)cc1)CN(S(=O)(=O)c1ccccc1)C2 (stereo not drawn)" result_type=pIC50 value=5.00
compound=O=C1/C(=C/c2ccccc2F)CN(S(=O)(=O)c2ccc(Cl)cc2)C/C1=C\c1ccccc1F result_type=pIC50 value=4.85
compound=O=C1/C(=C/c2ccc(F)cc2)CN(S(=O)(=O)c2ccc(C(F)(F)F)cc2)C/C1=C\c1ccc(F)cc1 result_type=pIC50 value=4.87

State recorded pIC50 for all listed compounds.
1. Cl.NC1=NC(c2ccccc2F)C2=C(N1)/C(=C/c1ccccc1F)CN(S(=O)(=O)c1ccccc1)C2 (stereo not drawn)
2. O=C1/C(=C/c2ccc(F)cc2)CN(S(=O)(=O)c2ccc([N+](=O)[O-])cc2)C/C1=C\c1ccc(F)cc1

Result:
4.95
4.79

Ask: Name the reported pIC50 value associated with the compound `O=C1/C(=C/c2cccc(F)c2)CN(S(=O)(=O)c2ccc(C(F)(F)F)cc2)C/C1=C\c1cccc(F)c1`
Result: 4.74

====

- run.description: Cytotoxicity against human HHL-5 cells assessed as reduction in cell viability incubated for 24 hrs by MTT assay
- Format: cell-based
- condition.label: HHL-5, 24 h
pIC50: −log10 of the molar value.
Criterion: pIC50 meeting or surpassing 5. Met: 1 (yes). Not met: 0 (no).

compound=O=C1/C(=C/c2ccc(F)cc2)CN(S(=O)(=O)c2ccc(Br)cc2)C/C1=C\c1ccc(F)cc1 label_value="0 (no)"
compound="Cc1ccc(S(=O)(=O)N2CC3=C(NC(N)=NC3c3cccc(F)c3)/C(=C/c3cccc(F)c3)C2)cc1.Cl (centres undefined)" label_value="0 (no)"
compound="Cl.N#Cc1ccc(S(=O)(=O)N2CC3=C(NC(N)=NC3c3cccc(F)c3)/C(=C/c3cccc(F)c3)C2)cc1 (centres undefined)" label_value="0 (no)"

Now look at this one.
Ask: Could you verify whether the entry `CC(=O)Nc1ccc(S(=O)(=O)N2C/C(=C\c3cccc(F)c3)C(=O)/C(=C/c3cccc(F)c3)C2)cc1` shows pIC50 of no less than 5?
Result: 0 (no)

====

- System: RAW264.7
- run.description: Cytotoxicity against mouse RAW264.7 cells assessed as reduction in cell viability at 5 uM incubated for 24 hrs by MTT assay
- Assay type: cell-based
- condition.label: raw264.7, 24 h
result.type: Activity

compound=O=C1/C(=C/c2ccc(F)cc2)CN(S(=O)(=O)c2ccc(C(F)(F)F)cc2)C/C1=C\c1ccc(F)cc1 value=Non-Toxic
compound="CC(=O)Nc1ccc(S(=O)(=O)N2CC3=C(NC(N)=NC3c3ccc(F)cc3)/C(=C/c3ccc(F)cc3)C2)cc1.Cl (centres undefined)" value=Non-Toxic
compound=Cc1ccc(S(=O)(=O)N2C/C(=C\c3cccc(F)c3)C(=O)/C(=C/c3cccc(F)c3)C2)cc1 value=Non-Toxic
compound="Cc1ccc(S(=O)(=O)N2CC3=C(NC(N)=NC3c3cccc(F)c3)/C(=C/c3cccc(F)c3)C2)cc1.Cl (centres undefined)" value=Non-Toxic

====

- System: L02
- run.description: Cytotoxicity against human L02 cells assessed as reduction in cell viability incubated for 24 hrs by MTT assay
- Format: cell-based
- condition.label: L02, 24 h
Record form. Attribute: IC50. Fill in for each entry.
Give bare numbers, in µM.

State recorded IC50 for all listed compounds.
1. CC(=O)Nc1ccc(S(=O)(=O)N2CC3=C(NC(N)=NC3c3ccc(F)cc3)/C(=C/c3ccc(F)cc3)C2)cc1.Cl (configuration not stated)
2. Cc1ccc(S(=O)(=O)N2C/C(=C\c3ccccc3F)C(=O)/C(=C/c3ccccc3F)C2)cc1
3. Cl.NC1=NC(c2ccc(F)cc2)C2=C(N1)/C(=C/c1ccc(F)cc1)CN(S(=O)(=O)c1ccc([N+](=O)[O-])cc1)C2 (configuration not stated)
4. Cl.NC1=NC(c2ccc(F)cc2)C2=C(N1)/C(=C/c1ccc(F)cc1)CN(S(=O)(=O)c1ccc(F)cc1)C2 (configuration not stated)
5. Cl.NC1=NC(c2cccc(F)c2)C2=C(N1)/C(=C/c1cccc(F)c1)CN(S(=O)(=O)c1ccc([N+](=O)[O-])cc1)C2 (configuration not stated)
6. Cl.NC1=NC(c2ccccc2F)C2=C(N1)/C(=C/c1ccccc1F)CN(S(=O)(=O)c1ccc(C(F)(F)F)cc1)C2 (configuration not stated)

Result:
1: 20.3; 2: 16.7; 3: 12.5; 4: 13.3; 5: 42.4; 6: 22

Ask: Name the reported IC50 value associated with the compound Cl.NC1=NC(c2ccc(F)cc2)C2=C(N1)/C(=C/c1ccc(F)cc1)CN(S(=O)(=O)c1ccc(Cl)cc1)C2 (configuration not stated)
Result: 16.7

====

Record form. Attribute: pIC50. Fill in for each entry.
- run.description: Cytotoxicity against human HHL-5 cells assessed as reduction in cell viability incubated for 24 hrs by MTT assay
- Type: cell-based
- condition.label: HHL-5, 24 h
Numbers only, as −log10 of the molar value.

State recorded pIC50 for all listed compounds.
1. O=C1/C(=C/c2cccc(F)c2)CN(S(=O)(=O)c2ccc(F)cc2)C/C1=C\c1cccc(F)c1
2. COc1cccc2c1C(=O)c1c(O)c3c(c(O)c1C2=O)C[C@@](O)(C(=O)CO)C[C@@H]3O[C@H]1C[C@H](N)[C@H](O)[C@H](C)O1
3. CC(=O)Nc1ccc(S(=O)(=O)N2CC3=C(NC(N)=NC3c3ccc(F)cc3)/C(=C/c3ccc(F)cc3)C2)cc1.Cl (stereo unspecified)
4. Cl.NC1=NC(c2cccc(F)c2)C2=C(N1)/C(=C/c1cccc(F)c1)CN(S(=O)(=O)c1ccc([N+](=O)[O-])cc1)C2 (stereo unspecified)
5. Cl.NC1=NC(c2ccccc2F)C2=C(N1)/C(=C/c1ccccc1F)CN(S(=O)(=O)c1ccc(Cl)cc1)C2 (stereo unspecified)
6. Cc1ccc(S(=O)(=O)N2C/C(=C\c3ccccc3F)C(=O)/C(=C/c3ccccc3F)C2)cc1
7. Cl.NC1=NC(c2cccc(F)c2)C2=C(N1)/C(=C/c1cccc(F)c1)CN(S(=O)(=O)c1ccc(Cl)cc1)C2 (stereo unspecified)

Result:
1. 4.81
2. 4.91
3. 4.49
4. 4.52
5. 5.04
6. 5.10
7. 4.92
